Values compiled from PubChem BioAssay (EPA / NIEHS).

read-out: Basic fibroblast growth factor (bFGF), FGF2 (gene 2247); experiment: BSK_MyoF_bFGF: BioMAP Diversity Plus: MyoF Assay for Basic fibroblast growth factor (bFGF) Biomarker Activity (AID 2284246); conditions: primary human lung fibroblasts
Calls of active or inactive are those of the source. How the source made its calls: active means hit-call score of the fitted dose curve at least 0.9, where 1 is the maximum; inactive means score below 0.9.
Outcomes: 1 (yes) = active, 0 (no) = inactive

> print(dat)
                                    compound  classification
 1  CCOC(=O)CN[C@@H](C(=O)N1CC[C@H]1C(=O)NCc1ccc(/C(N)=N/O)cc1)C1CCCCC1          0 (no)
 2  O=C(O)CCC(F)(F)C(F)(F)C(F)(F)C(F)(F)C(F)(F)F          0 (no)
 3                           O=C(NO)c1ccccc1          0 (no)
 4                   CC1=NN(c2ccccc2)C(=O)C1          0 (no)
 5  O=S(=O)(O)C(F)(F)C(F)(F)C(F)(F)C(F)(F)C(F)(F)C(F)(F)C(F)(F)C(F)(F)C(F)(F)C(F)(F)F          0 (no)
 6                   CC[N+](CC)(CC)Cc1ccccc1          0 (no)
 7  O=C(CC(=O)C(F)(F)C(F)(F)C(F)(F)F)c1cccs1          0 (no)
 8  O=C1OC2(c3ccccc31)c1cc(I)c(O)c(I)c1Oc1c2cc(I)c(O)c1I         1 (yes)
 9                    CC(C)(C)c1ccc(O)c(O)c1         1 (yes)
10                  Cc1ccc(C(=O)c2ccccc2)cc1          0 (no)
11  C=CC(C)(CCC=C(C)C)OC(C)=O (stereo not drawn)          0 (no)
12                             COc1cccc(O)c1          0 (no)
13  COc1cc(OC)nc(NC(=O)NS(=O)(=O)Nc2ccccc2C(=O)N(C)C)n1          0 (no)
14               C=CC(=C)CC/C=C(\C)CCC=C(C)C          0 (no)
15    Clc1ccc(Nc2nnc(Cc3ccncc3)c3ccccc23)cc1          0 (no)
16                          CCCCCc1ccc(O)cc1         1 (yes)
17   COCN(COC)c1nc(N(COC)COC)nc(N(COC)COC)n1          0 (no)
18     CCCCCCCCCCCCCCCCCC[N+](C)(C)Cc1ccccc1         1 (yes)

---

Assay: ATG_CRE_CIS: Attagene CIS-FACTORIAL HepG2 Assay for human cAMP Responsive Element (CRE) binding protein 3 (AID 2282926)
Details: HepG2 CRE cis-reporter, Attagene multiplexed mRNA; actives raise or lower the signal
Description: ATG_CIS is a cell-based, multiplexed-readout assay that uses HepG2, a human liver cell line, with measurements taken at 24 hours after chemical dosing in a 24-well plate.ATG_CRE_CIS is one of 52 assay component(s) measured or calculated from the ATG_CIS assay. […] This assay endpoint, ATG_CRE_CIS, was analyzed with bidirectional fitting relative to DMSO as the negative control and baseline of activity. […]
The source made the active and inactive calls. How the source made its calls: active means hit-call score of the fitted dose curve at least 0.9, where 1 is the maximum; inactive means score below 0.9.
Outcomes: true (1) = active, false (0) = inactive

> print(dat)
                                    compound  classification
 1  C=CC(=O)OCCC(F)(F)C(F)(F)C(F)(F)C(F)(F)C(F)(F)C(F)(F)F       false (0)
 2  Cc1cc(Cc2cc(C)cc(C(C)(C)C)c2O)c(O)c(C(C)(C)C)c1        true (1)
 3                              O=C(O)C(=O)O       false (0)
 4                  Cc1ccc2ccc3ccc(C)cc3c2c1       false (0)
 5                 CNNCc1ccc(C(=O)NC(C)C)cc1       false (0)
 6                              Cc1cncc(C)c1       false (0)
 7  O=P(O)(O)CCC(F)(F)C(F)(F)C(F)(F)C(F)(F)C(F)(F)C(F)(F)F       false (0)
 8                     O=C(c1ccccc1)c1ccccc1       false (0)
 9    FC(F)(F)N1C(F)(F)C(F)(F)OC(F)(F)C1(F)F       false (0)
10                   CC[N+](CC)(CC)Cc1ccccc1       false (0)
11  C=CC(=O)OCC(CO)(COCC(COC(=O)C=C)(COC(=O)C=C)COC(=O)C=C)COC(=O)C=C       false (0)
12                     Oc1ccc(Cc2ccccc2O)cc1       false (0)
13  O=S(=O)(O)C(F)(F)C(F)(F)C(F)(F)C(F)(F)C(F)(F)C(F)(F)C(F)(F)C(F)(F)C(F)(F)C(F)(F)F       false (0)
14                  Cc1ccc(C(=O)c2ccccc2)cc1       false (0)
15                    c1cnc2c(c1)ccc1cccnc12       false (0)
16         O=C(F)C(F)(F)C(F)(F)C(F)(F)C(=O)F       false (0)
17                           OCC(CO)(CBr)CBr       false (0)
18    O=C1C=CC(=O)N1c1cccc(N2C(=O)C=CC2=O)c1       false (0)
19                        CCN(CCC#N)c1ccccc1       false (0)
20           CC1CNCC(C)O1 (stereo not given)       false (0)
21      CC1CCC(C(=O)O)CC1 (stereo not given)       false (0)
22                        Oc1cccc2c(O)cccc12       false (0)
23  O=P(O)(O)CCC(F)(F)C(F)(F)C(F)(F)C(F)(F)C(F)(F)C(F)(F)C(F)(F)C(F)(F)F       false (0)
24  CC(C)c1c(C(=O)Nc2ccccc2)c(-c2ccccc2)c(-c2ccc(F)cc2)n1CC[C@@H](O)C[C@@H](O)CC(=O)O       false (0)
25  C=CC(C)(CCC=C(C)C)OC(C)=O (stereo not given)       false (0)
26  Cc1[nH]nc2c1N=C(c1ccccc1Cl)c1cc([N+](=O)[O-])ccc1N2       false (0)
27  O=C(OC(=O)C(F)(F)C(F)(F)F)C(F)(F)C(F)(F)F       false (0)
28  Cc1ccccc1C(OCCN(C)C)c1ccccc1 (stereo not given)       false (0)
29  FC(F)(F)C1(F)C(F)(F)C(F)(F)C(F)(F)C(F)(C(F)(F)F)C1(F)F (stereo not given)       false (0)
30  OCC(F)(F)C(F)(F)C(F)(F)C(F)(F)C(F)(F)C(F)(F)C(F)(F)C(F)(F)C(F)(F)C(F)(F)C(F)(F)F       false (0)
31   O=C(Nc1ccc(Cl)c(Cl)c1)c1cc(Cl)cc(Cl)c1O       false (0)
32        c1cc2cccc3c4cccc5cccc(c(c1)c23)c54       false (0)
33  O=C(NCc1ncc(C(F)(F)F)cc1Cl)c1c(Cl)cccc1Cl       false (0)
34  COc1cc(OC)nc(NC(=O)NS(=O)(=O)Nc2ccccc2C(=O)N(C)C)n1       false (0)
35       Nc1cc(Cl)c(-c2cc(Cl)c(N)cc2Cl)cc1Cl       false (0)
36                                c1cc[nH]c1       false (0)
37                                    CCCC=O       false (0)
38               O=C(C=C(O)C(F)(F)F)C(F)(F)F       false (0)
39  C[N+](C)(CCCNS(=O)(=O)CCC(F)(F)C(F)(F)C(F)(F)C(F)(F)C(F)(F)C(F)(F)F)CC(=O)[O-]       false (0)
40                    CCCCCCCCCCCCCCCC(=O)OC       false (0)
41        CCCCC(CC)C(=O)O (stereo not given)       false (0)
42             O=CC(F)(F)C(F)(F)C(F)(F)C(F)F       false (0)
43    CCCCCCCCC1CCC(=O)O1 (stereo not given)       false (0)
44                                   CCCCC=O       false (0)
45  Cc1cc(C(=C2C=CC(=Nc3ccc(S(=O)(=O)O)cc3)C=C2)c2ccc(Nc3ccc(S(=O)(=O)O)cc3)cc2)cc(S(=O)(=O)O)c1N       false (0)
46  CC(C)(c1ccc(Oc2ccc(N)cc2)cc1)c1ccc(Oc2ccc(N)cc2)cc1       false (0)
47  CCOC(=O)c1nc(C(Cl)(Cl)Cl)n(-c2ccc(Cl)cc2Cl)n1       false (0)
48                      Nc1ccc(O)c(C(=O)O)c1       false (0)
49                     Cc1cccc2c1ccc1ccccc12       false (0)
50                              CC(=O)CC(C)C       false (0)
